- assayed target: Prostaglandin D2 receptor 2 (CRTH2) (Homo sapiens)
- assay text: Binding affinity to DP2 receptor (unknown origin) in presence of 10% human serum
pIC50: −log10 of the molar value.
reported property: pIC50

Data request: Find the measured pIC50 of Cc1ccc(Oc2nc3cc(-c4ccc(-c5ccccc5)cc4)c(Cl)cc3[nH]2)cc1C(=O)O and report it.
Data returned: < 4.07

* * *

- assayed target: Prostaglandin D2 receptor 2 (CRTH2) (Homo sapiens)
- assay text: Binding affinity to DP2 receptor (unknown origin)
reported property: IC50
Answer as a quantity: numeral, then unit.

Data request: Find the measured IC50 of Cc1ccc(Oc2nc3cc(-c4ccc(-c5ccccc5)cc4)c(Cl)cc3[nH]2)cc1C(=O)O and report it.
Data returned: 1800 nM

Provenance of the data: BindingDB's records for doi:10.1021/acs.jmedchem.7b01344
